Assay: Cytotoxicity assay
Settings: human, CC50, HFF, HSV-1 row
reported endpoint: CC50

Please fill in: CC50 reported for CC1(O)C(O)C(CO)OC1n1ccc(N)nc1=O (stereo not shown) = > 100 µg/mL

###

Assay: Clinical pharmacokinetics of mCyd after oral val-mCyd
Settings: human, plasma, 50 mg, Cmax (Mean), mCyd in plasma, val-mCyd 50 mg PO, Day 1
reported endpoint: Cmax (µg/mL)
Numeric only. Scale: µg/mL

Please fill in: Cmax reported for CC1(O)C(O)C(CO)OC1n1ccc(N)nc1=O (stereo not shown) = 0.428

###

Tested on: BVDV RNA
Assay: Intracellular BVDV RNA by Real Time RT-PCR in de novo-infected MDBK cells
Format: cell-based
Conditions: Bovine viral diarrhea virus isolates and strains, 18-hours post infection, read-out: EC50, BVDV RNA levels
reported endpoint: pEC50
Scale note: pEC50 = -log10(concentration in M).

Please fill in: pEC50 reported for CC1(O)C(O)C(CO)OC1n1ccc(N)nc1=O (stereo not shown) [mCyd] = 5.77

###

Assay: Cytotoxicity (Table 10)
Details: dog, MDCK cells, Influenza A/H3N2 row
reported endpoint: CC50

Please fill in: CC50 reported for CC1(O)C(O)C(CO)OC1n1ccc(N)nc1=O (stereo not shown) = 45 to 65 µM

###

Assay: Cytotoxicity (cell proliferation) assay
Conditions: human, Huh7 hepatoma cells
reported endpoint: CC50 at 4 days

Please fill in: CC50 at 4 days reported for CC1(O)C(O)C(CO)OC1n1ccc(N)nc1=O (stereo not shown) = > 250 µM

###

Test system: CVB-3
Assay: microbe, parasite or virus in culture
Format: cell-based, Coxsackievirus B-3
Conditions: Coxsackievirus, read-out: EC50 CVB-3
reported endpoint: pEC50
Scale note: pEC50 = -log10(concentration in M).

Please fill in: pEC50 reported for CC1(O)C(O)C(CO)OC1n1ccc(N)nc1=O (stereo not shown) [mCyd] = 5.05

###

Assay: Clinical pharmacokinetics of mCyd after oral val-mCyd
Settings: human, plasma, 50 mg, Tmax (Mean), mCyd in plasma, val-mCyd 50 mg PO, Day 1
reported endpoint: Tmax
Express the reported value numerically, then name its unit.

Please fill in: Tmax reported for CC1(O)C(O)C(CO)OC1n1ccc(N)nc1=O (stereo not shown) [mCyd] = 2.5 h

###

Test: Cytotoxicity testing by NIH program
Settings: human and other mammalian
reported endpoint: CC50

Please fill in: CC50 reported for CC1(O)C(O)C(CO)OC1n1ccc(N)nc1=O (stereo not shown) = > 50 µM

###

System: BVDV (strain NADL) in MDBK cells
Experiment: BVDV cell protection assay (CPA)
Format: cell-based
Settings: Bovine viral diarrhea virus isolates and strains, BVDV MOI 0.16
pEC50: −log10 of the molar value.
reported endpoint: pEC50

Tested on BVDV (strain NADL) in MDBK cells, the item CC1(O)C(O)C(CO)OC1n1ccc(N)nc1=O (stereo not shown) showed pEC50 equal to ~5.66

###

Test: Clinical pharmacokinetics of mCyd after oral val-mCyd
Conditions: human, plasma, 50 mg, t1/2 (Mean), mCyd in plasma, val-mCyd 50 mg PO, Day 15
reported endpoint: half-life (h)
Numeric only. Scale: h

Please fill in: half-life reported for CC1(O)C(O)C(CO)OC1n1ccc(N)nc1=O (stereo not shown) = 4.6

###

Test: Cytotoxicity assay
Details: human, CC50, HFF, HSV-2 row
reported endpoint: CC50

Please fill in: CC50 reported for CC1(O)C(O)C(CO)OC1n1ccc(N)nc1=O (stereo not shown) [mCyd] = > 100 µg/mL
